These entries and their values trace back to patent US9688764B2.

# assay_system: T1, hPRLR.mmh (soluble monomeric human PRLR) (Homo sapiens, UniProt P16471)
# T1 construct: soluble monomeric (hPRLR.mmh); mmh (myc-myc-hexahistidine)
# T1 sequence (P16471 with tags, fused parts or gaps): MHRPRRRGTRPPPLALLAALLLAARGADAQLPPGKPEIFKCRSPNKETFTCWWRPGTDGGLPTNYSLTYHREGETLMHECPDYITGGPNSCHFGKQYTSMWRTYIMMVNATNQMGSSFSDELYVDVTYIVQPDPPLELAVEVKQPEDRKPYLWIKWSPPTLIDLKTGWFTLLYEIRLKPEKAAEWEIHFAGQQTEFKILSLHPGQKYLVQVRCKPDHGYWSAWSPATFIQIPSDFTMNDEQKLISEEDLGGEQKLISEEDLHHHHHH
# protocol: Surface plasmon resonance (Biacore T200), mAb-capture format
# Type: binding
# condition_summary: 37° C., antibody-capture format, analyte hPRLR.mmh
Measured Kd values are reported for all entries that follow.

{"molecule": "H1H6800P: anti-PRLR antibody, human IgG1 Fc; HCVR/LCVR SEQ ID NOs 194/202 (antibody, V domains shown, human IgG1 Fc) VH: EVQLVESGGGLVQPGRSLRLSCAASGFTFDGYAMHWVRQGPGKGLEWVSGISWYSDTLGYADSVKGRFTISRDNAKNSLYLQMNSLRTEDTAFYYCAKISSSGWAFDYWGQGTLVTVSS VL: EIVLTQSPGTLSLSPGERATLSCRASHSVSSAYLAWYQQKPGQTPRLLIYGTSSRATGIPDRFSGSGSGTDFTLTISRLEPEDFAVYYCQQYGSSPLFTFGPGTKVDIK", "endpoint": "Kd", "experimental_result": "1.47 nM"}

From here, focus on the item given below.
Ask: State its Kd: H1H6804P: anti-PRLR antibody, human IgG1 Fc; HCVR/LCVR SEQ ID NOs 242/250 (antibody, V domains shown, human IgG1 Fc) VH: QVTLKESGPVLVKPTQTLSLTCTVSGFSLSDAGMGVSWIRQPPGKALEWLAHIFSNDGKSYSTSLKSRLTISKDTSKRQVVLTMTNMDPVDTATYYCARIRTGTYSLYLDYWGQGTLVTVSS VL: DIQMTQSPSSLSASVGDRVTITCRASQSINSYLNWYQQKPGKAPKLLLYFASSLQSGVPSRFSGSGSGTDFTLTISSLQPEDFASYYCQESYSTPWTFGQGTKVEIK
Reply: 6.34 nM
